Target: CYP3A4 (Homo sapiens, UniProt P08684)
Sequence (P08684 whole entry): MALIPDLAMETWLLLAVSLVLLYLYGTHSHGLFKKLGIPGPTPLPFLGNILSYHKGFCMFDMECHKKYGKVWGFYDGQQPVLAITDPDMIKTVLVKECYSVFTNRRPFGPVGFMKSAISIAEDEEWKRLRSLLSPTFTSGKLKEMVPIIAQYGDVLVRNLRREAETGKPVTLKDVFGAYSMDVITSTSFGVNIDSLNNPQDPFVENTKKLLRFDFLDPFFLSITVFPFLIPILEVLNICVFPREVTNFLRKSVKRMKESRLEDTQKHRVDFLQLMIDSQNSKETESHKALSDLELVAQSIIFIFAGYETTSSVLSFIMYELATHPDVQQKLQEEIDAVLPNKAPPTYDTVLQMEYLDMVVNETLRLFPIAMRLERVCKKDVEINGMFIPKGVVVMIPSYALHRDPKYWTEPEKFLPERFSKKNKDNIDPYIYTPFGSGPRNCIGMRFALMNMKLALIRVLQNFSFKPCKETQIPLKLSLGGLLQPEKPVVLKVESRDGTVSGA
Experiment: Inhibition of human CYP3A4 assessed as remaining enzyme activity at 10 uM preincubated for 5 mins followed by Vivid CYP substrate addition measured after 20 mins by fluorescence assay relative to control
Type: ADME
Settings: probe Vivid CYP substrate, read-out: Activity
Checkbox rule: activity at 20 min, 10 µM lower than 40% = true (1); activity at 20 min, 10 µM not lower than 40% = false (0).

Worked set:
CCc1nnc(SCC(=O)N(C)c2ccccc2)c2cc3sccc3n12 :: true (1)
CCc1nnc(SCC(=O)N(C)c2ccccc2)c2cc3sc(C)cc3n12 :: false (0)
CCN(Cc1ccccc1)C(=O)CSc1nnc(C)n2c1cc1sc(C)cc12 :: false (0)
CCc1nnc(SCC(=O)Nc2ccccc2)c2cc3sc(C)cc3n12 :: true (1)
CCc1nnc(SCC(=O)Nc2ccc(OC)c(OC)c2)c2cc3sc(C)cc3n12 :: false (0)

Input Cc1nnc(SCC(=O)N(C)c2ccccc2)c2cc3sccc3n12 ; condition: activity at 20 min, 10 µM strictly below 40%. Does it hold?
false (0)

For CCc1nnc(SCC(=O)N2CCN(c3ccccc3)CC2)c2cc3sc(C)cc3n12 then?
true (1)
